Data origin, for the record: patent US20060002881A1

method.summary: Solvent solubility of perfluoroalkanamides
Type: physicochemical
Set-up: key: S: complete dissolve in the solvent at room temperature; P: precipitation in the solvent
applied.conditions: 3% w/w, @ RT

- item.smiles: "CCCCCCCCCCCCNC(=O)C(F)(F)C(F)(F)C(F)(F)C(F)(F)C(F)(F)C(F)(F)C(F)(F)C(F)(F)F"
  Solubility in CF-76 (3 M): "@ RT → P >"
- item.smiles: "CCCCCCCCNC(=O)C(F)(F)C(F)(F)C(F)(F)C(F)(F)C(F)(F)C(F)(F)C(F)(F)C(F)(F)F"
  Solubility in CF-76 (3 M): "S"
- item.smiles: "CCCCCCCCCCCCNC(=O)C(F)(F)C(F)(F)C(F)(F)C(F)(F)C(F)(F)C(F)(F)F"
  Solubility in CF-76 (3 M): "@ RT → P >"
- item.smiles: "CCCCCCCCCCCCNC(=O)C(F)(F)C(F)(F)C(F)(F)C(F)(F)C(F)(F)C(F)(F)C(F)(F)F"
  Solubility in CF-76 (3 M): "@ RT → P >"
